biological target: GAL4 DBD (1-147)-CfEcR(DEF)/VP16AD-βRXREF-LmUSPEF (Choristoneura fumiferana); assay: cell-based; settings: 33 uM ligand; RLU ligand treated / RLU DMSO treated cells; average of two wells
Entries and their Fold Induction, 27-63 Assay, 33 uM values follow.
Measure Name: Fold Induction, 27-63 Assay, 33 uM

compound=COCc1c(OC)cccc1C(=O)NN(C(=O)c1cc(C)cc(C)c1)C(C)(C)C measure_name="Fold Induction, 27-63 Assay, 33 uM" quantitative_result=221
compound="CCc1ccc(C(=O)NN(C(=O)c2cccnc2OC)C(CC)C(C)(C)C)cc1 (centres unmarked)" measure_name="Fold Induction, 27-63 Assay, 33 uM" quantitative_result=1156
compound=COc1cc(C(=O)N(NC(=O)c2cccc(OC)c2C)C(C)(C)C)c(OC)nn1 measure_name="Fold Induction, 27-63 Assay, 33 uM" quantitative_result=23
compound=Cc1c(C(=O)NN(C(=O)c2cc(F)c(F)cc2F)C(C)(C)C)ccc2c1CCCO2 measure_name="Fold Induction, 27-63 Assay, 33 uM" quantitative_result=1423
compound=COc1cc(C(=O)N(NC(=O)c2cccc(OC)c2C)C(C)(C)C)nc(OC)n1 measure_name="Fold Induction, 27-63 Assay, 33 uM" quantitative_result=231

====

target: GAL4 DBD-CfEcR(DEF)/VP16AD-MmRXRE (Choristoneura fumiferana, UniProt O77240); experiment: 13B3 Assay (CHO stable cell line, luciferase reporter); settings: 3.3 uM ligand; RLU ligand treated / RLU DMSO treated cells; average of two wells
Measure Name: Fold Induction, 13B3 Assay, 3.3 uM

molecular_string=COc1cc(C(=O)N(NC(=O)c2ccc3c(c2C)OCCO3)C(C)(C)C)c([N+](=O)[O-])c(OC)c1C quantitative_result=558
molecular_string=Cc1c(Cl)cccc1C(=O)NN(C(=O)c1cccc(Cl)c1)C(C)(C)C quantitative_result=5
molecular_string=CCc1ccc(C(=O)NN(C(=O)c2ccccc2CC)C(C)(C)C)cc1 quantitative_result=194
molecular_string=COc1cccc(C(=O)NN(C(=O)c2cc(C)ccc2[N+](=O)[O-])C(C)(C)C)c1C quantitative_result=1710
molecular_string=COc1cccc(C(=O)NN(C(=O)c2cc(C)cc(C)c2)C(C)(C)C)c1CF quantitative_result=3

====

system: Caco-2 monolayers; assay: Bi-directional permeability, CACO-2; assay type: in vitro ADME; settings: Caco-2
Entries and their Papp, B-to-A Rep. 1 values follow.
Measure Name: Papp, B-to-A Rep. 1

compound="CCc1c(OC)cccc1C(=O)NN(C(=O)c1ccccc1S(=O)(=O)O)C(C)(C)C [RG-115555]" result="1.55 10^−6 cm/s"
compound="CC(O)c1ccc(C(=O)NN(C(=O)c2cc(CO)cc(CO)c2)C(C)(C)C)cc1 (stereo not shown) [RG-100021]" result="0.91 10^−6 cm/s"
compound="CCCC(N(NC(=O)c1cccc(OC)c1C)C(=O)c1cc(C)cc(C)c1)C(C)(C)C (stereo not shown) [RG-115823]" result="18.8 10^−6 cm/s"
compound="COc1cnccc1C(=O)N(NC(=O)c1cccc(O)c1C)C(C)(C)C [RG-115595]" result="29.8 10^−6 cm/s"

====

molecular target: GAL4 DBD-CfEcR(DEF)/VP16AD-MmRXRE (Choristoneura fumiferana); experiment: 13B3 Assay (CHO stable cell line, luciferase reporter); conditions: read-out: 13B3 EC50; CHO 13B3 stable cell line, luciferase reporter, 48 h; average of two wells
Entries and their EC50 values follow.
Measure Name: EC50 (nM)

molecular_string=COc1cccc(C(=O)NN(C(=O)c2cc(C)cc(C)c2)C(C)(C)C)c1[N+](=O)[O-] test_system="GAL4 DBD-CfEcR(DEF)/VP16AD-MmRXRE (Choristoneura fumiferana)" measure_name=EC50 readout_unit=nM quantitative_result=44300
molecular_string=CCc1ccc(C(=O)NN(C(=O)c2cc(C)cc(C)c2)C(C)(C)C)cc1Cl test_system="GAL4 DBD-CfEcR(DEF)/VP16AD-MmRXRE (Choristoneura fumiferana)" measure_name=EC50 readout_unit=nM quantitative_result=288
molecular_string=Cc1c(C(=O)NN(C(=O)c2cc(F)cc(F)c2)C(C)(C)C)ccc2c1CCCO2 test_system="GAL4 DBD-CfEcR(DEF)/VP16AD-MmRXRE (Choristoneura fumiferana)" measure_name=EC50 readout_unit=nM quantitative_result=618

====

Entries and their 13B3 assay Rel Max FI values follow.
biological target: GAL4 DBD-CfEcR(DEF)/VP16AD-MmRXRE (Choristoneura fumiferana, UniProt O77240); assay: 13B3 Assay (CHO stable cell line, luciferase reporter); conditions: maximum fold induction at any concentration relative to that of GS-E ligand; CHO 13B3 cells
Measure Name: 13B3 assay Rel Max FI

molecular_string=CCc1cccc(C(=O)NN(C(=O)c2cc(C)cc(C)c2)C(C)(C)C)c1C measure_name="13B3 assay Rel Max FI" result=0.918
molecular_string=CCc1ccc(C(=O)NN(C(=O)c2ccccc2CC)C(C)(C)C)cc1 measure_name="13B3 assay Rel Max FI" result=0.684
molecular_string=Cc1cc(C)cc(C(=O)N(NC(=O)c2cccc(OC(C)C)c2C)C(C)(C)C)c1 measure_name="13B3 assay Rel Max FI" result=0.874
molecular_string=COc1cc(C(=O)N(NC(=O)c2ccc3c(c2C)CCCO3)C(C)(C)C)cc(OC)c1C measure_name="13B3 assay Rel Max FI" result=0.894
molecular_string=Cc1c(C(=O)NN(C(=O)c2cccc(F)c2)C(C)(C)C)ccc2c1OCCO2 measure_name="13B3 assay Rel Max FI" result=0.711
molecular_string=COc1cc(C(=O)N(NC(=O)c2ccc3c(c2C)OCCO3)C(C)(C)C)c([N+](=O)[O-])c(OC)c1C measure_name="13B3 assay Rel Max FI" result=0.883

====

target: GAL4 DBD-CfEcR(DEF)/VP16AD-MmRXRE (Choristoneura fumiferana, UniProt O77240); assay: 13B3 Assay (CHO stable cell line, luciferase reporter); conditions: maximum fold induction at any concentration relative to that of GS-E ligand; CHO 13B3 cells
Parameter class (string): assigned from measured 13B3 assay Rel Max FI. Ranges: bucket 1: < 0.6; bucket 2: ≥ 0.6 and < 0.8; bucket 3: ≥ 0.8

molecule="Cc1cc(C)cc(C(=O)N(NC(=O)c2ccc3c(c2C)CCCO3)C(C)(C)C)c1 [RG-102408]" cat="bucket 2"
molecule="CCc1c(OC)cccc1C(=O)NN(C(=O)c1cc(F)cc(C(F)(F)F)c1)C(C)(C)C [RG-115088]" cat="bucket 2"
molecule="CCc1ccc(C(=O)NN(C(=O)c2ccc(OC)nc2OC)C(C)(C)C)c(F)c1 [RG-115050]" cat="bucket 2"
molecule="COc1ccccc1C(=O)N(NC(=O)c1ccc2c(c1C)CCCO2)C(C)(C)C [RG-115102]" cat="bucket 1"
molecule="COc1cccc(C(=O)NN(C(=O)c2cc(C)cc(C)c2)C(C)(C)C)c1[N+](=O)[O-] [RG-100568]" cat="bucket 3"
molecule="Cc1c(C(=O)NN(C(=O)c2cc(F)c(F)cc2F)C(C)(C)C)ccc2c1CCCO2 [RG-115229]" cat="bucket 1"
molecule="COc1cccc(C(=O)NN(C(=O)c2cccc(C)c2)C(C)(C)C)c1C [RG-100694]" cat="bucket 2"
molecule="CCc1c(OC)cccc1C(=O)NN(C(=O)c1ccccc1[N+](=O)[O-])C(C)(C)C [RG-115330]" cat="bucket 2"
molecule="CCc1ccc(C(=O)NN(C(=O)c2cc(OC)c(C)c(OC)c2)C(C)(C)C)c(F)c1 [RG-115077]" cat="bucket 3"
molecule="CCc1c(C(=O)NN(C(=O)c2cc(C)cc(C)c2)C(C)(C)C)ccc2c1OC(C)O2 (stereo not drawn) [RG-101659]" cat="bucket 3"
molecule="COc1cccc(C(=O)NN(C(=O)c2cc(C)cc(C)c2)C(C)(C)C)c1C [RG-102398]" cat="bucket 3"
molecule="CCc1c(OC)cccc1C(=O)NN(C(=O)c1cc(C)cc(C)c1)C(C)(C)C=NCCO [RG-115511]" cat="bucket 1"
molecule="Cc1ccc(F)c(C(=O)N(NC(=O)c2ccc3c(c2C)CCCO3)C(C)(C)C)c1 [RG-115499]" cat="bucket 1"
molecule="COc1cccc(C(=O)NN(C(=O)c2cc(C)cc(C)c2)C(C)(C)C)c1N [RG-115378]" cat="bucket 2"
molecule="CCc1c(OC)cccc1C(=O)NN(C(=O)c1cc(C)cc(C)c1)C(C)(C)CO[Si](C)(C)C(C)(C)C [RG-115665]" cat="bucket 1"
molecule="CCc1c(C(=O)NN(C(=O)c2ccccc2OC)C(C)(C)C)ccc2c1OCCO2 [RG-115244]" cat="bucket 2"
molecule="Cc1c(Cl)cccc1C(=O)NN(C(=O)c1cccc(Cl)c1)C(C)(C)C [RG-101202]" cat="bucket 1"
molecule="Cc1c(C(=O)NN(C(=O)c2ccc(F)cc2)C(C)(C)C)ccc2c1CCCO2 [RG-115118]" cat="bucket 1"
molecule="Cc1c(C(=O)NN(C(=O)c2cc(F)c(Cl)cc2Cl)C(C)(C)C)ccc2c1CCCO2 [RG-115539]" cat="bucket 3"
molecule="COc1cc(C)cc(C(=O)N(NC(=O)c2cccc(OC)c2C)C(C)(C)C)c1 [RG-100767]" cat="bucket 3"
molecule="Cc1cc(C)cc(C(=O)N(NC(=O)c2ccc3c(c2Br)OCCO3)C(C)(C)C)c1 [RG-101340]" cat="bucket 1"
molecule="CCC(N(NC(=O)c1cccc(C)c1C)C(=O)c1cc(C)cc(C)c1)C(C)(C)C (stereo not drawn) [RG-103309]" cat="bucket 3"
molecule="Cc1c(C(=O)NN(C(=O)c2cc(F)cc(F)c2)C(C)(C)C)ccc2c1CCCO2 [RG-115207]" cat="bucket 2"
molecule="CCc1c(C(=O)NN(C(=O)c2ccccc2OC)C(C)(C)C)ccc2c1OCCO2 [RG-100690]" cat="bucket 1"
molecule="CCc1c(OC)cccc1C(=O)NN(C(=O)c1cccc(F)c1F)C(C)(C)C [RG-115627]" cat="bucket 3"
molecule="CCc1c(OC)cccc1C(=O)NN(C(=O)c1ccc(Cl)cc1[N+](=O)[O-])C(C)(C)C [RG-115647]" cat="bucket 2"
molecule="CCc1c(OC)cccc1C(=O)NN(C(=O)c1cc(F)c(Cl)cc1Cl)C(C)(C)C [RG-115302]" cat="bucket 2"
molecule="CCc1c(OC)cccc1C(=O)NN(C(=O)c1cc(OC)c(C)c(OC)c1)C(C)(C)C#N [RG-115690]" cat="bucket 3"

Reference source for all entries: patent US9102648B1
